This collection of values is drawn from patent US20240409645A1.

# ASSAYED_TARGET: T1, human IL-2Rβ (human, UniProt P14784 27-240, limits assumed)
# T1 construct: recombinant protein, coated or immobilised; also called hu IL-2R; IL-2R beta
# T1 sequence: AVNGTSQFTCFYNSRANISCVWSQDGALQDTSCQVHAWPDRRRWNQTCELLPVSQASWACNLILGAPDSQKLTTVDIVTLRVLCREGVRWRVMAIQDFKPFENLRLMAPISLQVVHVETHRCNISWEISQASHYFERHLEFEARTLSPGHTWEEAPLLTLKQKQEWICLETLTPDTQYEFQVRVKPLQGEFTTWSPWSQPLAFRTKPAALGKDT
# MEASUREMENT_DESCRIPTION: P.E. ELISA, coated protein
REPORTED_METRIC: P.E. binding ELISA OD (OD450 nm)
Form entry: value (OD450 nm) — number only.

[ask] Query: P.E. binding ELISA OD; subject: FJ1427_P035MP02B09 (VHH, soluble VHH in periplasmic extract; also called clone nr) VHH: EVQLVESGGGLVQAGGSLRLSCAASGRTFSTTEMGWFRQAPGKEREFVAAITWTGRGTMYAESVEGRFTISRENAKNMVYLQMNSLKPEDTAIYYCAAARRGRAAVRSEGGYDFWGQGTQVTVSS
[reply] 0.811

[ask] P.E. binding ELISA OD for FJ1427 P035MP02F04 (VHH, soluble VHH in periplasmic extract; also called clone nr) VHH: EVQLVESGGGLVQTGGSLRLSCAASGSQFINDVMGWYRQVPGKQRELVADMDDTGSTKYADSVKGRFTILRDSVKNTAYLQMSNLKPEDTGVYYCKAGLWIKGRHFDYWGQGTQVTVSS ?
[reply] 0.516

[ask] Fill in: P.E. binding ELISA OD of FJ1427_P035MP02E04 (VHH, soluble VHH in periplasmic extract; also called clone nr) VHH: EVQLVESGGGLVQAGGSLRLSCAASGGTFSSYAMGWFRQAPGKEREFVAATTRGGGRTMYAVSTEGRFTCSRDNAKNTVYLQMNSLKPKDTAIYYCAAMTSYYSGTYYPDSSDFDIWGQGTQVTVSS is ___
[reply] 0.255

[ask] What does the data say about its P.E. binding ELISA OD? Entry: FJ1427 P035MP02C08 (VHH, soluble VHH in periplasmic extract; also called clone nr) VHH: EVQLVESGGGLVQAGGSLRLSCAASGSTFSRQPMYWFRQAPGKEREFVAAITWSGRGTLYADSVEGRFTISRDNAKNTVYLQMNSLRPDDTAAYYCAAGPYGDAAYRHGRIDSWGQGTQVTVSS
[reply] 0.254

[ask] What value of P.E. binding ELISA OD has been reported for the following binder? FJ1427_P035MP02C09 (VHH, soluble VHH in periplasmic extract; also called 17-MP02C09; clone nr) VHH: QVQLQESGGGLVQAGGSLRLSCVASGSVSSINGMAWYRQGADNQRVLVAAISRVGNTAYGDSVKGRFTISRQNARNTVYLQMNSLKPEDTAVYYCNADSWGGDDYWGQGTQVTVSS
[reply] 1.21

[ask] For FJ1427 P035MP02D09 (VHH, soluble VHH in periplasmic extract; also called clone nr) VHH: QVQLVESGGGLVQAGGSLRLACALSGDVFVRYTMAWFRQAPGKEREFVASVTDSGRTTDYVASVQGRFTVSRDNNKNTVYLQMNSLKPEDTAVYYCAANTDYFQIRSLDRNTWGQGTQVTVSS , what is its reported P.E. binding ELISA OD?
[reply] 1.47

[ask] Item under review: FJ1427_P035MP02F03 (VHH, soluble VHH in periplasmic extract; also called clone nr) VHH: EVQLVESGGGLVQAGGSLRLSCAASGGTFSSYAMGWFRQAPGKEREFVAATTRGGGRTMYAVSTEGRFTCSRDNAKNTVYLLMNSLKPEDTAVYYCAAMTSYYSGTYYPDSSDFDIWGQGTQVTVSS . Reported P.E. binding ELISA OD?
[reply] 0.212

[ask] Fill in the blank: the reported P.E. binding ELISA OD of FJ1427_P035MP02G10 (VHH, soluble VHH in periplasmic extract; also called clone nr) VHH: QVQLVESGGGLVQAGGSLRLSCAASGRTFSTTEMGWFRQAPGKEREFVAAITWTGRGTMYAESVEGRFTISRENAKNMVYLQMNSLKPEDTAIYYCAAARRGRAAVRSEGGYDFWGQGTQVTVSS is ____.
[reply] 0.974

[ask] What P.E. binding ELISA OD value was documented for this binder, FJ1427 P035MP02A04 (VHH, soluble VHH in periplasmic extract; also called clone nr) VHH: EVQLVESGGGLVQTGGSLRLSCTASGSQFINDVMGWYRQVPGKQRELVADMDDTGSTKYADSVNGRFTILRDSVKNTAYLQMSNLKPEDTGVYYCKAGLWIKGRHSDYWGQGTQVTVSS ?
[reply] 0.533

[ask] // lookup P.E. binding ELISA OD for FJ1427_P035MP02G03 (VHH, soluble VHH in periplasmic extract; also called clone nr) VHH: QVQLVESGGGLVQPGGSLGLSCAASGFTFSNYAMSWVRQAPGKGLEWVASITGFGRGTDYADSVKGRFTVSRDNAKNTLYLQMNSLKPEDTAVYYCAKYSSSTYYPPTPARGRDYRGQGTQVTVSS
[reply] 0.197

[ask] Which measured P.E. binding ELISA OD value corresponds to FJ1427_P035MP02E08 (VHH, soluble VHH in periplasmic extract; also called clone nr) VHH: EVQLVESGGGLVQAGGSLRLSCVVSGDVFVRYTMAWFRQAPGKEREFVAVVTDSGRTTEYVDSVKGRFTVSRDNAKNTVYLQMNNLKPEDTAVYYCAANTDYFQIRSVDNNAWGQGTQVTVSS ?
[reply] 0.45

[ask] # input binder: FJ1427 P035MP03A12 (VHH, soluble VHH in periplasmic extract; also called 21-MP03A12; clone nr) VHH: EVQLVESGGGLVQAGGSLRLSCAASGRTFSINAMGWFRQAPGKEREFVAAISRSGGSTVYVDGVKGRFTISRDNAKNTVYLQMNSLEPEDTAVYYCAATMAVGWTTRWRTADFDSWGQGTQVTVSS ; wanted: its P.E. binding ELISA OD
[reply] 0.146

[ask] Which P.E. binding ELISA OD value belongs to FJ1427_P035MP02B10 (VHH, soluble VHH in periplasmic extract; also called clone nr; 170) VHH: QVQLVESGGGLVEAGGSLRLSCAASGRAFNNFPMGWFRQAPGKEREFVAAITWISGSTLYADSVKGRFTISRDKSKNTVYLQMSGLKPEDTALYYCAAALKTITRGQHDYTYWGQGTQVTVSS ?
[reply] 0.476

[ask] // P.E. binding ELISA OD lookup, key: FJ1427_P035MP02H01 (VHH, soluble VHH in periplasmic extract; also called clone nr) VHH: QVQLVESGGGLVQPGGSLGLSCAASGFTFDNYAMSWVRQAPGKGLEWVSSITGAGRGTHYADSVKGRFTISRDNAKNTLYLQMNSLKPEDTAVYYCAKYSSSTYYPPTPARGTDYRGPGTQVTVSS
[reply] 0.487

[ask] Requested read-out: P.E. binding ELISA OD. Entry: FJ1427 P035MP02G05 (VHH, soluble VHH in periplasmic extract; also called clone nr) VHH: EVQLVESGGGLVQTGGSLRLSCAASGSQFINDVTGWYRQVPGKQRELVADMDDTGSTKYADSVKGRFTILRDSVKNTAYLQMSNLKPEDTGVYYCKAGLWIKGRHSDYWGQGTQVTVSS
[reply] 0.567
